- Tested on: K562 cells
- TEST: Proliferation, K562
- Assay type: cell-based, human
- CONDITION SUMMARY: Homo sapiens, K562; Table S1 screening; read-out: IC50 (cell proliferation inhibition in K562 cells)

MOLECULE: COc1cc2nc(C)nc(N[C@H](C)c3cc(N)cc(C(F)(F)F)c3)c2cc1O[C@H]1CCN(C(=O)CCCCCCCCCSc2cccc3c2CN(C2CCC(=O)NC2=O)C3=O)C1 (stereo partly shown) [SIAIS561097]
IC50 [µM]: 15.1
--
MOLECULE: COc1cc2nc(C)nc(N[C@H](C)c3cc(N)cc(C(F)(F)F)c3)c2cc1OC1CCN(C(=O)CSc2cccc3c2CN(C2CCC(=O)NC2=O)C3=O)CC1 (stereo partly shown) [SIAIS561131]
IC50 [µM]: 17.8
--
MOLECULE: COc1cc2nc(C)nc(N[C@H](C)c3cc(N)cc(C(F)(F)F)c3)c2cc1OC1CCN(C(=O)CCSc2cccc3c2CN(C2CCC(=O)NC2=O)C3=O)CC1 (stereo partly shown) [SIAIS561132]
IC50 [µM]: 0.112
--
MOLECULE: COc1cc2nc(C)nc(N[C@H](C)c3cc(N)cc(C(F)(F)F)c3)c2cc1O[C@H]1CCN(C(=O)CCCSc2cccc3c2CN(C2CCC(=O)NC2=O)C3=O)C1 (stereo partly shown) [SIAIS561094]
IC50 [µM]: 7.13
--
MOLECULE: COc1cc2nc(C)nc(N[C@H](C)c3cc(N)cc(C(F)(F)F)c3)c2cc1O[C@H]1CCN(C(=O)CCCCCSc2cccc3c2CN(C2CCC(=O)NC2=O)C3=O)C1 (stereo partly shown) [SIAIS561087]
IC50 [µM]: 6.51
--
MOLECULE: COc1cc2nc(C)nc(N[C@H](C)c3cc(N)cc(C(F)(F)F)c3)c2cc1O[C@H]1CCN(C(=O)CCCCCCCCSc2cccc3c2CN(C2CCC(=O)NC2=O)C3=O)C1 (stereo partly shown) [SIAIS562079]
IC50 [µM]: 7.08
--
MOLECULE: COc1cc2nc(C)nc(N[C@H](C)c3cc(N)cc(C(F)(F)F)c3)c2cc1O[C@H]1CCN(CCCCCCCCCCCCSc2cccc3c2CN(C2CCC(=O)NC2=O)C3=O)C1 (stereo partly shown) [SIAIS562020]
IC50 [µM]: 0.822
--
MOLECULE: COc1cc2nc(C)nc(N[C@H](C)c3cc(N)cc(C(F)(F)F)c3)c2cc1OC1CCN(C(=O)CCCCCSc2cccc3c2CN(C2CCC(=O)NC2=O)C3=O)CC1 (stereo partly shown) [SIAIS561135]
IC50 [µM]: 1.85
--
MOLECULE: COc1cc2nc(C)nc(N[C@H](C)c3cc(N)cc(C(F)(F)F)c3)c2cc1OC1CCN(C(=O)CCCCCCCCCCSc2cccc3c2CN(C2CCC(=O)NC2=O)C3=O)CC1 (stereo partly shown) [SIAIS561138]
IC50 [µM]: 8.97
--
MOLECULE: COc1cc2nc(C)nc(N[C@H](C)c3cc(N)cc(C(F)(F)F)c3)c2cc1O[C@H]1CCN(C(=O)CSc2cccc3c2CN(C2CCC(=O)NC2=O)C3=O)C1 (stereo partly shown) [SIAIS561092]
IC50 [µM]: 7.29
--
MOLECULE: COc1cc2nc(C)nc(N[C@H](C)c3cc(N)cc(C(F)(F)F)c3)c2cc1O[C@H]1CCN(CCCCCCCCCCCSc2cccc3c2CN(C2CCC(=O)NC2=O)C3=O)C1 (stereo partly shown) [SIAIS562019]
IC50 [µM]: 0.846
--
MOLECULE: COc1cc2nc(C)nc(N[C@H](C)c3cc(N)cc(C(F)(F)F)c3)c2cc1O[C@H]1CCN(C(=O)CCCCCCCCCCCSc2cccc3c2CN(C2CCC(=O)NC2=O)C3=O)C1 (stereo partly shown) [SIAIS562082]
IC50 [µM]: 4.68
--
MOLECULE: COc1cc2nc(C)nc(N[C@H](C)c3cc(N)cc(C(F)(F)F)c3)c2cc1O[C@H]1CCN(C(=O)CCSc2cccc3c2CN(C2CCC(=O)NC2=O)C3=O)C1 (stereo partly shown) [SIAIS561093]
IC50 [µM]: 16.4
